Provide the recorded INHIBITION for the entries that follow.
- System: Plasmodium berghei
- protocol_text: Screen against P. berghei liver stage (PbLuc), transformed with Luciferase, at 10uM
- Assay type: functional, HepG2
- condition_context: tested at 10 uM
Screen size: about 69,000 compounds; about 8,600 (12%) showed an effect of 50% or more. What follows is part of a selection rich in strong results, with near analogues and random picks from the rest.
# output: number + unit

A selection of reference data follows.
>>> df
                                   compound     target_of_assay  result
0  O=C(CN(CC(O)c1ccc(F)cc1)C1CC1)NC(C1CC1)C1CC1 (centres undefined)  Plasmodium berghei   45.7%
1    CC(C)(C)c1nc(CN2CCC(c3ccnn3CCO)CC2)no1  Plasmodium berghei    -17%
2  CC(=O)N(CCc1nc(-c2cc(C(N)=O)co2)cs1)C(C)C  Plasmodium berghei  -49.3%
3  CC(C(=O)N1CCCCC1)N1CCN(c2ncc(Cl)cn2)CC1 (centres undefined)  Plasmodium berghei    -15%
4         c1ccc2oc(C3CCN(Cc4ncon4)CC3)nc2c1  Plasmodium berghei   15.2%

For the 7 compounds below, give their INHIBITION values.
1. CC(=O)N(CCc1nc(-c2cc(C(N)=O)oc2C)cs1)C(C)C
2. CC(C)[C@H](NS(C)(=O)=O)C(=O)NCc1cc(-c2ccccc2)nn1C
3. CNc1nc(C)c(C(=O)N2C[C@@H]3CC[C@H]2CN(c2cnccn2)C3)s1
4. O=C(Cc1cccs1)NCC1(O)CCc2ccccc2C1 (centres undefined)
5. CCc1cnc(N2C[C@H]3CCCC(N(C)Cc4ccccn4)[C@H]3C2)nc1 (some centres undefined)
6. CNc1cc(C)nc(N2C[C@@H](C(=O)O)[C@H](C3CC3)C2)n1
7. COc1cc(-c2ccc(F)c3c2OC(CN)C3)cc(OC)c1OC (centres undefined)

[reply]
74%
20.4%
-26.1%
37.4%
33.1%
38.6%
31.9%

For the 6 compounds below, give their INHIBITION values.
1. CCc1nc(C)c(C(=O)N2C[C@@H](C(=O)O)[C@H](C3CC3)C2)s1
2. CNC(=O)[C@@H]1CCO[C@@H]2CCN(Cc3ccsc3)C[C@H]21
3. O=C1CC[C@H]2[C@H](CCN2C(=O)C2CCCO2)N1Cc1ccncc1 (some centres undefined)
4. Cc1n[nH]c2nc(-c3cc(Br)ccc3O)cc(C(=O)O)c12
5. COc1cccnc1-c1ccc(F)c2c1OC(CN)C2 (centres undefined)
6. CC(C)C[C@H](N)C(=O)N1CCSc2ccccc2C1

[reply]
1. 63%
2. 31.1%
3. 8.69%
4. 4.82%
5. -66.7%
6. 81.6%

For the 8 compounds below, give their INHIBITION values.
1. c1csc(CN2CCO[C@H]3[C@H](OCCN4CCCC4)CC[C@@H]32)n1
2. Cc1nc(C)c(C(=O)N2CCCC(c3cnccn3)C2)s1 (centres undefined)
3. CC1CN(CC(=O)NC(=O)NCc2cccs2)CCN1CC(F)(F)F (centres undefined)
4. Clc1ccc2oc(C3CCN(Cc4cccnc4)CC3)nc2c1
5. CC(=O)N(C)CCc1nc(-c2cc(C(N)=O)co2)cs1
6. COCCOCC(C)NC(=O)COc1nn(C)c2nc(C)cc(C)c12 (centres undefined)
7. Cc1nc(C)c(C(=O)N2C[C@@H](C(=O)O)[C@H](C3CC3)C2)s1
8. CC(C)(C)c1nc(CN2CCC(c3nc4cc(Cl)ccc4o3)CC2)no1

[reply]
["16.8%", "11.1%", "3.03%", "73.4%", "-91.4%", "9.63%", "76.9%", "56.9%"]

For the 2 compounds below, give their INHIBITION values.
1. O=C1CC[C@@H]2[C@@H](CCN2C(=O)c2ccsc2)N1CC1CC1
2. CCc1nc(C)c(C(=O)N2CCCC(c3noc(C)n3)C2)s1 (centres undefined)

[reply]
["47.8%", "45.4%"]

For the 2 compounds below, give their INHIBITION values.
1. Cc1cnc(N2C[C@H]3CCCC(N(C)Cc4ccccn4)[C@H]3C2)nc1 (some centres undefined)
2. CN(C)C(=O)CN1C[C@H]2CN(Cc3cccc(F)c3)C(=O)[C@H]2C1

[reply]
1: 55.7%; 2: 25.2%

For the 7 compounds below, give their INHIBITION values.
1. CCc1nnc(CN2CCC(c3nc4cc(Cl)ccc4o3)CC2)o1
2. CCS(=O)(=O)c1ccc2oc([C@H]3CCN(Cc4cccnc4)C3)nc2c1
3. CN1CCN(C2CCN(Cc3noc(C(C)(C)C)n3)CC2)C1=O
4. CCc1nc(C)c(C(=O)N2C[C@@H]3CC[C@H]2CN(S(=O)(=O)N(C)C)C3)s1
5. Cc1nc(CN2C(=O)CC[C@H]3[C@@H]2CCN3C(=O)c2ccsc2)cs1
6. Cc1nc(-c2ccccc2)sc1CNC1CCc2ncnn2C1 (centres undefined)
7. O=C1C(NS(=O)(=O)c2ccc(F)cc2)CCN1Cc1ccccc1 (centres undefined)

[reply]
["33.8%", "19.8%", "-21.5%", "40.7%", "4.55%", "8.64%", "23.5%"]

For the 7 compounds below, give their INHIBITION values.
1. O=C1CC[C@H]2[C@H](CCN2C(=O)C2CCOC2)N1Cc1ccncc1 (some centres undefined)
2. CCn1cnnc1CNC(=O)N1CCC(CN2CCOCC2)CC1
3. CC(C)[C@H](N)C(=O)N1CCSc2ccccc2C1
4. COC1(CNC(=O)c2ccoc2)CCSC1 (centres undefined)
5. CNc1nc(C)c(C(=O)N2C[C@@H](C(=O)O)[C@H](C3CC3)C2)s1
6. CC(C)c1noc(CN2CCC(c3nc4cc(Cl)ccc4o3)CC2)n1
7. NC(C(=O)N1CCSc2ccccc2C1)c1ccccc1 (centres undefined)

[reply]
1. 54.7%
2. -11.4%
3. -20.5%
4. 14.2%
5. 83.8%
6. 67.9%
7. -22.1%
